- targetDesc: T1, recombinant human TL1A (human, UniProt O95150 71-251)
- T1 construct: Homotrimeric cytokine; biotinylated with Sulfo-NHS-biotin where captured for SPR, coated unlabelled in ELISA, soluble in bioassays; also called TNFSF15
- T1 chain: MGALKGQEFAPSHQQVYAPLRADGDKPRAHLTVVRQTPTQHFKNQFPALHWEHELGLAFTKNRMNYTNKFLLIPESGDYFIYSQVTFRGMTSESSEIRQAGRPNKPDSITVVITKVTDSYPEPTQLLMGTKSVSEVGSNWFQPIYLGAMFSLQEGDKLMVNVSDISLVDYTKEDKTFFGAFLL
- measurementNotes: competition ELISA, coated TL1A, competitor bio-TL1A-0002
Reported Bioactivity relative to TL1A-0002 values follow for various binders
Numbers only; they are read as fold.

Recorded Bioactivity relative to TL1A-0002, per entry:
[[record]]
binder = "TL1A-0289 (antibody, human IgG1, kappa, V domains shown, human IgG1 effector-function-minimized/kappa) VH: QVQLVQSGAEVKKPGASVKVSCKASGYDFTYYGVSWVRQAPGQGLEWMGWISTYNTGTHYAPSLQGRVTMTTDTSTSTAYMELRSLRSDDTAVYYCARESYYGSGAHRGGMDVWGQGTTVTVSS VL: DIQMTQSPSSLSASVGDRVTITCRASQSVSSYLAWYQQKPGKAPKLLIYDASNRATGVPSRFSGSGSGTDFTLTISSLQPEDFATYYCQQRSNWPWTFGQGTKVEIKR"
measurementlabel = "Bioactivity relative to TL1A-0002"
u = "fold"
experimentalresult = 1.6

[[record]]
binder = "TL1A-0042 (antibody, human IgG1, kappa, V domains shown, parental heavy chain with IGKV1-39*01 light chain; human IgG1 effector-function-minimized/kappa) VH: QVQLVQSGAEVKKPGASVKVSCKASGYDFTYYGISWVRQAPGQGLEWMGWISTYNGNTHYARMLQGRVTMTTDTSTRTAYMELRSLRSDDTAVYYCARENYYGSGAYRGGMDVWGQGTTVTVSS VL: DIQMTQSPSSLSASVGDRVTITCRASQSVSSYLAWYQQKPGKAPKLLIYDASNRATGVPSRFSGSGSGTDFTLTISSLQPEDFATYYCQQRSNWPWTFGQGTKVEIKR"
measurementlabel = "Bioactivity relative to TL1A-0002"
u = "fold"
experimentalresult = 0.8

[[record]]
binder = "TL1A-0260 (antibody, human IgG1, kappa, V domains shown, human IgG1 effector-function-minimized/kappa; also called bio-TL1A-0260 (biotinylated reporter)) VH: QVQLVQSGAEVKKPGASVKVSCKASGYDYTYYGISWVRQAPGQGLEWMGWISTYNTGTHYAPSLQGRVTMTTDTSTSTAYMELRSLRSDDTAVYYCARESYYGSGAFRGGMDVWGQGTTVTVSS VL: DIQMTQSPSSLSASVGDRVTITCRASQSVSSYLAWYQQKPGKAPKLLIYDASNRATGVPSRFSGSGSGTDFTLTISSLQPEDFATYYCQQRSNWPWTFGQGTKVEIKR"
measurementlabel = "Bioactivity relative to TL1A-0002"
u = "fold"
experimentalresult = 1.3


Prompt line: What Bioactivity relative to TL1A-0002 value was documented for this binder, TL1A-0293 (antibody, human IgG1, kappa, V domains shown, human IgG1 effector-function-minimized/kappa) VH: QVQLVQSGAEVKKPGASVKVSCKASGYDFTYYGVSWVRQAPGQGLEWMGWISTYNTVTHYAPSLQGRVTMTTDTSTSTAYMELRSLRSDDTAVYYCARESYYGSGAHRGGMDVWGQGTTVTVSS VL: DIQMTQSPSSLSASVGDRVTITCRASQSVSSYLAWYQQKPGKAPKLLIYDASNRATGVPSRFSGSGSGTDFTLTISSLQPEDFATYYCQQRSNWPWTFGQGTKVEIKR ?
Response line: 1.9
